biological target: Human Polymorphonuclear Leukocyte Elastase (Homo sapiens, UniProt P08246); construct: Crude extract of human polymorphonuclear leukocytes (PMN) containing elastase activity; from tissue; host or cells: human polymorphonuclear leukocytes (crude extract); experiment: Inhibition of human polymorphonuclear leukocyte elastase via hydrolysis of N-t-Boc-alanyl-alanyl-prolylalanine-p-nitroanilide; format: biochemical; conditions: Table II; crude PMN extract, Boc-AAPAN substrate, pH 7.5; 50% inhibition 2 minutes after zero time
readout-name: IC50 (nM)

Use the examples below as a reference point.
>>> value_observed("CO[C@H]1C(=O)N2C(c3nnn(Cc4ccc(C(=O)OC(C)(C)C)cc4)n3)=C(COC(C)=O)CS(=O)(=O)[C@H]12")
75
>>> value_observed("CO[C@H]1C(=O)N2C(c3nnn(C)n3)=C(COC(C)=O)CS(=O)(=O)[C@H]12")
560
>>> value_observed("CO[C@H]1C(=O)N2C(c3nnn(Cc4ccccc4C(=O)O)n3)=C(COC(C)=O)CS(=O)(=O)[C@H]12")
628
>>> value_observed("CO[C@H]1C(=O)N2C(c3nnn(Cc4ccccc4C(=O)OC(C)(C)C)n3)=C(COC(C)=O)CS(=O)(=O)[C@H]12")
562

(A) CO[C@H]1C(=O)N2C(c3nnn(Cc4ccc(C(=O)O)cc4)n3)=C(COC(C)=O)CS(=O)(=O)[C@H]12
(B) CO[C@H]1C(=O)N2C(c3nnn(CC(=O)O)n3)=C(COC(C)=O)CS(=O)(=O)[C@H]12
Which shows the larger IC50 value: A or B ? Provide the label of your selected option as the answer. B
(B: 7470 nM, A: 419 nM)

---

Molecular target: Human Polymorphonuclear Leukocyte Elastase (Homo sapiens, UniProt P08246)
Construct: Crude extract of human polymorphonuclear leukocytes (PMN) containing elastase activity; from tissue; host or cells: human polymorphonuclear leukocytes (crude extract)
Sequence (P08246 30-247 limits assumed): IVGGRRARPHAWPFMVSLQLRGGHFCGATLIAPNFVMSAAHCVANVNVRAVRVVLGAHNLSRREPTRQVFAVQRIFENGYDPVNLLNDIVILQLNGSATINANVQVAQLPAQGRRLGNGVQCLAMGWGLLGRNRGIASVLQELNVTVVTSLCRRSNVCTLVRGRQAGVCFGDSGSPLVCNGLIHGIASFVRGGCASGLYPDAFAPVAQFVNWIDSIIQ
Assay: Inhibition of human polymorphonuclear leukocyte elastase via hydrolysis of N-t-Boc-alanyl-alanyl-prolylalanine-p-nitroanilide
Format: biochemical
Settings: Table I; crude PMN extract, Boc-AAPAN substrate, pH 7.5; 50% inhibition 2 minutes after zero time
readout-name: IC50 (µM)

Use the examples below as a reference point.
>>> value_observed("COc1ccc(Cn2nnnc2C2=C(COC(=O)NCc3ccccc3)CS(=O)(=O)[C@@H]3[C@@H](OC)C(=O)N23)cc1")
0.541
>>> value_observed("CO[C@H]1C(=O)N2C(c3nnn[nH]3)=C(COC(=O)NCc3ccccc3)CS(=O)(=O)[C@H]12")
9.21
>>> value_observed("COc1ccc(Cn2nnnc2C2=C(COC(=O)N(C)C)CS(=O)(=O)[C@@H]3[C@@H](OC)C(=O)N23)cc1")
1.42
>>> value_observed("CO[C@H]1C(=O)N2C(c3nnn[nH]3)=C(COC(C)=O)CS(=O)(=O)[C@H]12")
58.3

(1) COc1ccc(Cn2nnnc2C2=C(COC(C)=O)CS(=O)(=O)[C@@H]3[C@@H](OC)C(=O)N23)cc1
(2) CO[C@H]1C(=O)N2C(c3nnn[nH]3)=C(COC(=O)N(C)C)CS(=O)(=O)[C@H]12
Returns the identifier with the smallest measured IC50 among 1 and 2 . Provide the label of your selected option as the answer. 1
(1: 1.73 µM, 2: 5.37 µM)

---

molecular target: Human Polymorphonuclear Leukocyte Elastase (Homo sapiens, UniProt P08246); construct: Crude extract of human polymorphonuclear leukocytes (PMN) containing elastase activity; from tissue; host or cells: human polymorphonuclear leukocytes (crude extract); assay: Inhibition of human polymorphonuclear leukocyte elastase via hydrolysis of N-t-Boc-alanyl-alanyl-prolylalanine-p-nitroanilide; format: biochemical; conditions: Table III, lower part; crude PMN extract, Boc-AAPAN substrate, pH 7.5; 2 minutes after zero time
readout-name: IC50 (µM)

(A) COc1ccc(Cn2nnnc2C2N3C(=O)C(NC(=O)C(F)(F)F)C3S(=O)(=O)C2(C)C)cc1 (centres unmarked) [drawing 32, n=2]
(B) COc1ccc(Cn2nnnc2C2N3C(=O)C(NC(=O)C(F)(F)F)C3SC2(C)C)cc1 (centres unmarked) [drawing 32, n=0]
Which shows the larger IC50 value: A or B ? Provide the label of your selected option as the answer. B
